Recorded values, source PubChem BioAssay AID1996.

# COND: buffer; pH 7.4; 200.0 µM
PARAMETER MEASURED: solubility kinetic

## Input solubility kinetic lookup needed for C/C(N)=C(/C#N)C(=O)COC(=O)Cc1coc2cc(C)ccc12 , thanks.
## Output 10.2 µg/mL

## Input What do you get for O=C(CSc1ncccn1)NC(=O)Cc1ccccc1 ?
## Output > 43.1 µg/mL

## Input Please do the same for O=[N+]([O-])c1ccc(CSC2=NCCS2)cc1 as well.
## Output 16.1 µg/mL

## Input Repeat for the following compound: Cl.c1ccc(CNCc2ccco2)cc1
## Output 33.5 µg/mL

---

# COND: buffer; pH 7.4; 200.0 µM
Answer each item with its documented solubility kinetic.

## Input # lookup: solubility kinetic of O=C(CCl)c1ccc2[nH]c(=O)oc2c1
## Output > 31.7 µg/mL

## Input CSc1nc(-c2ccc(C)cc2)nc(N)c1C#N ?
## Output < 0.1 µg/mL

## Input And then Cc1ccc2nc(C3CCCCC3)[nH]c2c1 , what is it?
## Output > 32.1 µg/mL

---

Assign solubility kinetic to each entry below.
# COND: buffer; pH 7.4; 200.0 µM

## Input I am curious: what solubility kinetic value has been reported for COCCn1c(=S)[nH]c2ccccc21 ?
## Output > 31.2 µg/mL

## Input Moving on to O=C1CSC(c2cccnc2)N1Cc1ccc(Cl)cc1Cl (stereo not drawn)
## Output > 50.9 µg/mL

## Input Another compound: O=C(c1cc2cc(Cl)ccc2[nH]1)N1CCN(c2ccccc2F)CC1
## Output < 0.3 µg/mL

## Input For CC1CCN(C(=O)c2ccc3c(c2)NC(=O)CN3)CC1 then?
## Output > 41 µg/mL

## Input Quick one: N#Cc1ccc(CSc2nnc3ccccn23)cc1
## Output > 39.9 µg/mL

## Input Input Cc1cccc(NC2=CC(=O)CC(C)(C)C2)c1C
## Output > 36.5 µg/mL

## Input Queued: O=C(Nc1ccc(Br)cn1)c1ccc2ccccc2c1
## Output < 0.4 µg/mL

## Input Same read-out for CCC(CC)C(=O)NCc1ccc(OC)cc1 ?
## Output 32.7 µg/mL

## Input Please give the result for O=S(=O)(c1cc(F)ccc1F)N1CCN(c2ncnc3ccccc23)CC1 too.
## Output 56.7 µg/mL

## Input Then what about the compound Cl.ClCCN1C2=NCCCN2c2ccccc21 ?
## Output > 40.8 µg/mL

## Input Entry COc1ccc2cc(C#N)c(Nc3cccc(F)c3)nc2c1 please
## Output < 0.2 µg/mL

## Input # iterate: COC1Cc2ccccc2N(C(N)=O)c2ccccc21 (stereo not drawn)
## Output > 40.2 µg/mL

## Input Do the same for CC1NC(=S)N(C2CCCCC2)C1=O (stereo not drawn) please
## Output > 31.8 µg/mL

## Input Check COc1ccccc1CC(=O)O/N=C(\N)c1ccccn1 too.
## Output > 42.8 µg/mL

## Input // next record Cc1ccc(C)c(NC(=O)c2nc(Cl)ccc2Cl)c1
## Output 3.2 µg/mL

## Input # iterate: Cc1cc(=O)oc(C)c1C(=O)NCCN(C)Cc1ccccc1
## Output > 47.2 µg/mL

## Input Let us now turn to CCCCn1c(N)c(C(=O)NCc2cccs2)c2nc3ccccc3nc21
## Output 1.6 µg/mL

## Input Would you mind doing COCCNC(=S)NC(=O)c1ccc(C(C)(C)C)cc1 as well?
## Output 14 µg/mL

## Input Now this one: CCCCNC(=O)CN1C(=O)NC(CCc2ccccc2)C1=O (stereo not drawn)
## Output 33.8 µg/mL

## Input And for O=C(O)CCNC(=O)c1ccccc1 ?
## Output > 29 µg/mL

## Input // next record O=C(CSc1ccc([N+](=O)[O-])cn1)Nc1ccc2c(c1)OCCO2
## Output 0.7 µg/mL

## Input Do the same for Cc1nc2c(C)cccc2c2c1COC2 please
## Output 18.4 µg/mL

## Input And then Cc1noc(-c2ccccc2)c1NC(=O)Nc1ccccc1 , what is it?
## Output > 44 µg/mL
